# System: secondary alcohol dehydrogenase
# experimental protocol: Oxidation of secondary alcohols by soluble extracts (NAD+ reduction at 340 nm)
# Format: biochemical, Arthrobacter sp. (CRL 60 P1) NRRL B-11,315
# measurement setup: substrate of soluble extracts, pH 8.0, 100% = 22 nmoles of NAD+ reduced per minute per mg of protein
measure: Rate of Oxidation (%)
Field format: number, assumed %, no unit text.

Lookup: Record request: Rate of Oxidation (%) value, item CCCC(C)O (stereo not shown)
Found: 12

Lookup: Okay, and CC(C)O ?
Found: 65

Lookup: Okay, and CCCCCC(C)O (stereo not shown) ?
Found: 4

Lookup: Okay, and CCCCC(C)O (stereo not shown) ?
Found: 10

* * *

# Test system: alkane monooxygenase
# experimental protocol: Epoxidation of alkenes and styrene by soluble extracts
# Type: biochemical, Brevibacterium sp. (CRL 56 P6Y) NRRL B-11,319
# measurement setup: pH 7
measure: Rate of Product Formation (μ mole/10 min./mg protein)
Field format: number, assumed μ mole/10 min./mg protein, no unit text.

C/C=C/C [trans-But-2-ene] = 0.022

Lookup: Record request: Rate of Product Formation value, item C=CCC
Found: 0.030

Lookup: Okay, and C=CCCCCC ?
Found: 0.008

Lookup: Okay, and C/C=C\C [cis-But-2-ene] ?
Found: 0.018

Lookup: Okay, and C=C ?
Found: 0.040

* * *

# Tested on: alkane monooxygenase
# experimental protocol: Epoxidation of alkenes and styrene by soluble extracts
# Type: biochemical, Brevibacterium sp. (CRL 56 P6Y) NRRL B-11,319
# measurement setup: substrate epoxidised by soluble fraction, NADH2 and oxygen, pH 7.0, 35°C
measure: Rate of Product Formation (μ mole/10 min./mg protein)
Field format: number, assumed μ mole/10 min./mg protein, no unit text.

C=C(C)C = 0.046
C=Cc1ccccc1 = 0.005
C=CCCC = 0.025
C=CC=C = 0.044

Could you now look at the following compound, please?
Lookup: Record request: Rate of Product Formation value, item C=CC
Found: 0.052
